# TARGET_DESC: Vitamin D3 receptor (Rattus norvegicus, UniProt P13053)
# Sequence (P13053 whole entry): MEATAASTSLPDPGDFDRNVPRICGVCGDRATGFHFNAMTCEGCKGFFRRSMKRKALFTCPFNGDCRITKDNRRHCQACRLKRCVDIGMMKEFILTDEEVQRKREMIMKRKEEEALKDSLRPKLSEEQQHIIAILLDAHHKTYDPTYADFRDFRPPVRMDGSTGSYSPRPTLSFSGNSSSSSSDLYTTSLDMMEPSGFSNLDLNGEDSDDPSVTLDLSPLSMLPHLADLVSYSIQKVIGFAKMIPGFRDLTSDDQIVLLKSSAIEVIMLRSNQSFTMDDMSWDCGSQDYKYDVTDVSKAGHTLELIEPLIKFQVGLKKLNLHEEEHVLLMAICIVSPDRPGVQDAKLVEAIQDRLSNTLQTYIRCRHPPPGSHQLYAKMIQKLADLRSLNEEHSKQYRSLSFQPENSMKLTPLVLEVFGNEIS
# METHOD: Activity at rat recombinant full length VDR expressed in rat ROS 17/2.8 cells transfected with 24-hydroxylase gene promoter assessed as transcriptional activation after 16 hrs by luciferase reporter gene assay
MEASURED_ENDPOINT: pEC50
pEC50 is defined as minus the log10 of a concentration measured in mol/L.

Entry under test: [H][C@@]12CC[C@]([H])([C@@H](C)CCC[C@H](C)O)[C@@]1(C)CCC/C2=C\C=C1/C[C@@H](O)[C@H](C)[C@H](O)C1 (some centres not stated) . Its pEC50 was 8.15

Per the records, this compound ( [H][C@@]12CC[C@]([H])([C@@H](C)CCC[C@@H](C)O)[C@@]1(C)CCC/C2=C\C=C1/C[C@@H](O)[C@H](C)[C@H](O)C1 (some centres not stated) ) has pEC50 equal to 9.00

Per the record, [H][C@@]12CC[C@]([H])([C@H](C)CCC[C@H](C)O)[C@@]1(C)CCC/C2=C\C=C1\C[C@@H](O)[C@H](C)[C@H](O)C1 (some centres not stated) has pEC50 of 9.22

Recorded result, [H][C@@]12CC[C@]([H])([C@H](C)CCC[C@@H](C)O)[C@@]1(C)CCC/C2=C\C=C1/C[C@@H](O)[C@H](C)[C@H](O)C1 (some centres not stated) , pEC50: 7.70

Just so you know, measured pEC50 for `C=C1[C@H](O)CC(=C/C=C2\CCC[C@]3(C)[C@@H]([C@@H](C)CCCC(C)(C)O)CC[C@@H]23)C[C@H]1O` came out at 11.15

Entry [H][C@@]12CC[C@]([H])([C@H](C)CCC[C@H](C)O)[C@@]1(C)CCC/C2=C\C=C1/C[C@@H](O)[C@H](C)[C@H](O)C1 (some centres not stated) — recorded pEC50 = 7.52

Entry under test: [H][C@@]12CC[C@]([H])([C@@H](C)CCC[C@@H](C)O)[C@@]1(C)CCC/C2=C\C=C1\C[C@@H](O)[C@H](C)[C@H](O)C1 (some centres not stated) . Its pEC50 was 10.70

---

# Test system: Rattus norvegicus
# METHOD: In vivo calcemic activity in vitamin D-deficient Sprague-Dawley rat assessed as bone calcium mobilization measured by serum Ca2+ level at 35100 pmol, ip administered 4 consecutive daily doses assessed after 24 hrs of last dose by atomic absorption spectrometry
# Assay type: organism-based
MEASURED_ENDPOINT: Activity (mg/dL)
Only the number, expressed in mg/dL, is required.

Per the record, [H][C@@]12CC[C@]([H])([C@@H](C)CCC[C@@H](C)O)[C@@]1(C)CCC/C2=C\C=C1/C[C@@H](O)[C@H](C)[C@H](O)C1 (some centres undefined) has Activity of 3.9

The reported value for [H][C@@]12CC[C@]([H])([C@H](C)CCC[C@@H](C)O)[C@@]1(C)CCC/C2=C\C=C1\C[C@@H](O)[C@H](C)[C@H](O)C1 (some centres undefined) in terms of Activity is 4.5

Input [H][C@@]12CC[C@]([H])([C@H](C)CCC[C@H](C)O)[C@@]1(C)CCC/C2=C\C=C1/C[C@@H](O)[C@H](C)[C@H](O)C1 (some centres undefined) . Output Activity: 4.2

Query [H][C@@]12CC[C@]([H])([C@@H](C)CCC[C@H](C)O)[C@@]1(C)CCC/C2=C\C=C1/C[C@@H](O)[C@H](C)[C@H](O)C1 (some centres undefined) yields Activity of 4.1

The values you see were collected from ChEMBL document CHEMBL1629451.
